Measured values drawn from paper PMC11079029 for this set.

test system: T1, PRPF40A WW12 (tandem WW domains, residues 141-236) (human, UniProt O75400 141-236)
T1 construct: A few vector residues probably remain at the N-terminus after TEV cleavage (pETM11, NcoI site); 15N-labelled in the NMR experiments; also called PRPF40A WW tandem; WW12 wt; source: E. coli BL21(DE3), purified (Ni-NTA, TEV digestion, reverse Ni-NTA, SEC); not shown: His6, N-terminal, cleaved
T1 sequence (O75400 141-236): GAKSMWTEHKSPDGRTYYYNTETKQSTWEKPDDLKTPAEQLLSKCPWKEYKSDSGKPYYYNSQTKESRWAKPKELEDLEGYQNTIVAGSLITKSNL
assay: ITC; PRPF40A construct (WW12, N-ext-WW12 or its mutant) in the cell, GB1-SF1 or GB1-SF3A1 construct in the syringe (as shown in Supplementary Figures 16 and 21); 25 °C, 20 mM sodium phosphate pH 6.5, 100 mM NaCl; one-site binding model; at least duplicates; affinities apparent
experimental context: both partners purified
property: Kd (µM)
Numbers only, in µM.

Measured Kd, EGQKVPPPPETPMPPPLPPTPDQVIVRKDYDPKASKPLPPAPAPDEYLVS (domain or fragment, UniProt Q15459 364-413, looked up, SF3A1 (U2 snRNP component), proline-rich region, residues 364-413; His6-GB1-TEV site cassette of the pET24 vector, not cleaved; source: E. coli BL21(DE3), purified (Ni-NTA, SEC); not shown: GB1, N-terminal, kept) [GB1-SF3A1 Middle Pro (residues 364-413)] : 8.86
